Test system: NLuc-UGA PTC
Test: NanoLuc nonsense reporter screen (all-in-one HTC plasmid), TGA/UGA PTC, HEK293 cells
Type: cell-based, human
Settings: Table 1, Arg TGA
metric: Ranking

• ArgTGAchr1.trna10/withintron: ACE-tRNA Arg, TGA suppressor, SEQ ID NO: 11 (nucleic acid, expressed or natural sequence) CGTCGGCTCCGTGGCGCAATGGATAGCGCATTGGACTTCAAGAGGCTGAAGGCATTCAAAGGTTCCGGGTTCGAGTCCCGGCGGAGTCG = #6
• ArgTGAchr9.trna6/withintron: ACE-tRNA Arg, TGA suppressor, SEQ ID NO: 9 (nucleic acid, expressed or natural sequence) CGTCGGCTCTGTGGCGCAATGGATAGCGCATTGGACTTCAAGCTGAGCCTAGTGTGGTCATTCAAAGGTTGTGGGTTCGAGTCCCACCAGAGTCG = #5

Value source: patent US20230203482A1
